Target: T1, human myostatin (human, UniProt O14793 267-375, biotinylated in selections and radioactive assays (site not stated))
T1 construct: Phage ELISA used both unbiotinylated and biotinylated myostatin; also called biotinylated human myostatin; myostatin-biotin
T1 sequence (looked up): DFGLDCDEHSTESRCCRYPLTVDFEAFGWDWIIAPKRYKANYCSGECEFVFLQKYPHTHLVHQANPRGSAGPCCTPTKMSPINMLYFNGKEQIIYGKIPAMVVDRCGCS
Experiment: radioactive equilibrium binding assay
Measured Metric: B max (%)
Unit % implied. Number only.

Q: Consider the binder shown here: 39885-F7 (designed binder, group M1-A) MTIPEIIIKVRGTQVVGSDMTVIVEFTNPLKETLRNVWVHLDGPGVTRPMKKMFPTIPMNHKVQWEEVVRPWVSGHRKLIASMPHLFHIHVYGELDVQIQRRDYKDDDDK What is its recorded B max?
Result: 62.7

Q: Now try 39885-H9 (designed binder, group M2-A) MTIPEIIIKVRGTQVVGSDMTVIVEFTNPLKETLRNVWVHLDGPGVTRPMKKMFPAIPMNHKVQWEEVVRPWVSGHRKLIASMINYFYNHVYGELDVQIQRRDYKDDDDK .
Result: 24.1

Q: Now try 45927-A11 (designed binder, group M1-Aext) MTIPEIIIKVRGTQVVGSDMTVIVEFTNPLKETLRNVWVHLDGPGVTRPMKKMFQKIPGCSTVQWEEVVRPWVSGHRKLIASMSMLGLPFSLRFIPVYGELDVQIQRRDYKDDDDK .
Result: 41.2

Q: Now try 39908-C6 (designed binder, group M3-A50; ΔS82, M83R; also called M05 (clone ID)) MTIPEIIIKVRGTQVVGSDMTVIVEFTNPFKETLRSVWVHLDGPGVTRPMKKMFCEIRPNSIVQWEEVVRPWVSGHRKLIARCSLSPWHVYGELDVQIQRRDYKDDDDK .
Result: 52.2
